Ref: patent US7491819B1

Measured Combination Indices at 90% HIV Inhibition (Confidence Interval) by item
# Test system: HIV-1 303B
# assay.protocol: microbe, parasite or virus in culture
# Type: cell-based
# condition.context: in combination with Example 19; EC50 ratio Example 19:comparator 1:1; 95% CI in parenthesis
reported.endpoint: Combination Indices at 90% HIV Inhibition (Confidence Interval)

>  <compound>
CC(C)Nc1cccnc1N1CCN(C(=O)c2cc3cc(NS(C)(=O)=O)ccc3[nH]2)CC1 [Delavirdine, delavirdine]

>  <endpoint.value>
0.48 (0.31, 0.64)

$$$$
>  <compound>
C[C@H](Cn1cnc2c(N)ncnc21)OCP(=O)(O)O [Tenofovir, tenofovir]

>  <endpoint.value>
0.43 (0.33, 0.53)

$$$$
>  <compound>
CC(C)c1nc(CN(C)C(=O)N[C@H](C(=O)N[C@@H](Cc2ccccc2)C[C@H](O)[C@H](Cc2ccccc2)NC(=O)OCc2cncs2)C(C)C)cs1 [Ritonavir, ritonavir]

>  <endpoint.value>
0.44 (0.23, 0.65)

$$$$
>  <compound>
Nc1nc(NC2CC2)c2ncn([C@H]3C=C[C@@H](CO)C3)c2n1 [Abacavir, abacavir]

>  <endpoint.value>
0.67 (0.49, 0.84)

$$$$
>  <compound>
CC(C)(C)NC(=O)[C@@H]1C[C@@H]2CCCC[C@@H]2CN1C[C@@H](O)[C@H](Cc1ccccc1)NC(=O)[C@H](CC(N)=O)NC(=O)c1ccc2ccccc2n1 [Saquinavir, saquinavir]

>  <endpoint.value>
0.58 (0.47, 0.69)

$$$$
>  <compound>
CC(C)CN(C[C@@H](O)[C@H](Cc1ccccc1)NC(=O)O[C@H]1CCOC1)S(=O)(=O)c1ccc(N)cc1 [Amprenavir, amprenavir]

>  <endpoint.value>
0.89 (0.50, 1.23)

$$$$

----------
# target: HIV-integrase (Human immunodeficiency virus type 1 group M subtype B)
# Construct: Recombinant integrase (0.26 ng) was incubated with the beads
# assay.protocol: HIV-Integrase Inhibition Activity (SPA bead strand-transfer assay)
# Format: biochemical
# condition.context: Table 1; read-out: Activity (HIV-integrase inhibition, IC50 class)
reported.endpoint: IC50

>  <molecule>
CN(C)C[C@H]1CCC(=O)N1c1cc(F)ccc1CNC(=O)c1nc2n(c(=O)c1O)CCOC2(C)C

>  <reported.endpoint>
IC50

>  <endpoint.value>
100 to 1000 nM

$$$$
>  <molecule>
CC1(C)OCCn2c1nc(C(=O)NCc1cccc(Cl)c1Cl)c(O)c2=O

>  <reported.endpoint>
IC50

>  <endpoint.value>
2 to 100 nM

$$$$
>  <molecule>
Cc1cc(CNC(=O)c2nc3n(c(=O)c2O)CCOC3C(C)C)ccc1F (stereo not drawn)

>  <reported.endpoint>
IC50

>  <endpoint.value>
2 to 100 nM

$$$$

----------
# Lookup of reported melting point keyed by entry

>  <compound>
Cc1ncn(-c2ccccc2CNC(=O)c2nc3n(c(=O)c2O)CCOC3(C)C)n1 [Example 288]

>  <melting point>
234 °C (dec.)

$$$$
>  <compound>
Cc1cc(CNC(=O)c2nc3n(c(=O)c2O)CCOC3)ccc1F [Example 2]

>  <melting point>
206 to 208 °C

$$$$
>  <compound>
CC1OCCn2c1nc(C(=O)NCc1ccc(F)cc1)c(O)c2=O (stereo not drawn) [Example 4]

>  <melting point>
165 to 167 °C

$$$$

----------
# Tested on: HIV-1 303B
# assay.protocol: microbe, parasite or virus in culture
# Assay type: cell-based
# condition.context: in combination with Example 19; EC50 ratio Example 19:comparator 1:1; 95% CI in parenthesis
# Combination Indices at 75% HIV Inhibition (Confidence Interval) listing for each entry below
reported.endpoint: Combination Indices at 75% HIV Inhibition (Confidence Interval)

>  <substance.smiles>
CC(C)CN(C[C@@H](O)[C@H](Cc1ccccc1)NC(=O)O[C@H]1CCOC1)S(=O)(=O)c1ccc(N)cc1

>  <endpoint.value>
0.84 (0.61, 1.08)

$$$$
>  <substance.smiles>
CC(C)(C)NC(=O)[C@@H]1C[C@@H]2CCCC[C@@H]2CN1C[C@@H](O)[C@H](Cc1ccccc1)NC(=O)[C@H](CC(N)=O)NC(=O)c1ccc2ccccc2n1

>  <endpoint.value>
0.67 (0.58, 0.75)

$$$$
>  <substance.smiles>
CC(C)c1nc(CN(C)C(=O)N[C@H](C(=O)N[C@@H](Cc2ccccc2)C[C@H](O)[C@H](Cc2ccccc2)NC(=O)OCc2cncs2)C(C)C)cs1

>  <endpoint.value>
0.57 (0.41, 0.73)

$$$$
>  <substance.smiles>
CC(C)(C)NC(=O)[C@@H]1CN(Cc2cccnc2)CCN1C[C@@H](O)C[C@@H](Cc1ccccc1)C(=O)N[C@H]1c2ccccc2C[C@H]1O

>  <endpoint.value>
0.71 (0.62, 0.81)

$$$$
>  <substance.smiles>
Cc1cccc(C)c1OCC(=O)N[C@@H](Cc1ccccc1)[C@@H](O)C[C@H](Cc1ccccc1)NC(=O)[C@H](C(C)C)N1CCCNC1=O

>  <endpoint.value>
0.77 (0.66, 0.88)

$$$$
>  <substance.smiles>
Cc1ccnc2c1NC(=O)c1cccnc1N2C1CC1

>  <endpoint.value>
0.69 (0.55, 0.83)

$$$$
